src = ChEMBL document CHEMBL3351360

# Experimental Protocol: Solubility of the compound at pH 7
# Assay type: physicochemical
# Study Conditions: buffer
Reported Property: solubility (µg/mL)
Kindly provide the numeric value in µg/mL only, without the unit symbol.

**Q:** Please report the recorded solubility for `CC(C)N1CCC(C(=O)Nc2cc(Oc3ccc4c(c3)nc(Nc3cccc(C(C)(C)C)c3)n4C)ccn2)CC1` .
**A:** 581

---

# Target Or System: Serine/threonine-protein kinase B-raf (Homo sapiens, UniProt P15056, V600E)
# Sequence (P15056 2-766 V600E limits assumed): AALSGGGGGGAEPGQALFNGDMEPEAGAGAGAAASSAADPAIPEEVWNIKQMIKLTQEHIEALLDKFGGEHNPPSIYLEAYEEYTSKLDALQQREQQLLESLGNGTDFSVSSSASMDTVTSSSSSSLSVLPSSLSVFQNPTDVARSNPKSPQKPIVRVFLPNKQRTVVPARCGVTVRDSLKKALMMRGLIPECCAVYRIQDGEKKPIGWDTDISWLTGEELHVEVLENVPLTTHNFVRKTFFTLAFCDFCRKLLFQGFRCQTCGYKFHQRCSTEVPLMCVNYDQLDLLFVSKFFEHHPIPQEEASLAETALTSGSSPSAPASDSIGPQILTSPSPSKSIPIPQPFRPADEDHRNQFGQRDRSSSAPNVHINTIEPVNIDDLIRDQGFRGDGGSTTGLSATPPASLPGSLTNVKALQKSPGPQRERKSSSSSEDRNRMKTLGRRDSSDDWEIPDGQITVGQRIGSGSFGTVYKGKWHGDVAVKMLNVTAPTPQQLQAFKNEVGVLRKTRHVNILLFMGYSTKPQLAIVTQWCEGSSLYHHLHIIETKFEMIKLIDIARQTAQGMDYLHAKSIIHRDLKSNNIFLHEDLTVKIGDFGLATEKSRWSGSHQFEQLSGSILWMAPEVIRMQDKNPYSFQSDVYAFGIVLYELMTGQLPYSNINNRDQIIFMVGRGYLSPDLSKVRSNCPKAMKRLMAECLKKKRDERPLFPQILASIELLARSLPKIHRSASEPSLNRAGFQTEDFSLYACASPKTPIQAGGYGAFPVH
# Experimental Protocol: Inhibition of BRAF V600E mutant (unknown origin)
As shown below, each of these compounds has a reported IC50 value.
Hi! Could you send only the number? It should be in nM, unit omitted.

Answered cases to consult:
- Molecule: "CN1CCC(C(=O)Nc2cc(Oc3ccc4c(c3)nc(Nc3cccc(C(C)(C)C)c3)n4C)ccn2)CC1"
  Target Or System: "Serine/threonine-protein kinase B-raf (Homo sapiens, UniProt P15056, V600E)"
  IC50 / nM: 10
- Molecule: "CC(=O)Nc1cc(Oc2ccc3c(c2)nc(Nc2ccc(C(C)(C)C)cc2)n3C)ccn1"
  Target Or System: "Serine/threonine-protein kinase B-raf (Homo sapiens, UniProt P15056, V600E)"
  IC50 / nM: 9

Pending compound:
**Q:** # IC50 lookup, item `CC(=O)Nc1cc(Oc2ccc3c(c2)nc(Nc2ccc(OC(F)(F)F)cc2)n3C)ccn1`
**A:** 1
